Value source: BindingDB's records for doi:10.1021/jm9800447

molecular target: Sigma non-opioid intracellular receptor 1 (Cavia porcellus) (UniProt Q60492); assay: Inhibition of [3H](+)-pentazocine binding to sigma-1 receptor in guinea pig brain membranes
Sequence (Q60492 whole entry, looked up): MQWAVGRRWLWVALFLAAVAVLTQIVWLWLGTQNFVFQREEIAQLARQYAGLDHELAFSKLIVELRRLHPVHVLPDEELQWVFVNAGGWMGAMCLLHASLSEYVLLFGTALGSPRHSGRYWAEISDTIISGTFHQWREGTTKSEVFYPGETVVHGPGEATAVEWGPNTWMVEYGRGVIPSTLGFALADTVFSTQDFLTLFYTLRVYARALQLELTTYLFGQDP
assay metric: Ki (nM)

// below: answered molecules
O=S(=O)(NCCN1CCCCC1)c1ccc(I)cc1 0.46
CCN(CC)CCNS(=O)(=O)c1ccc(I)cc1 4.97
O=S(=O)(NCCN1CCCC1)c1ccc(I)cc1 4.3
COc1ccc(S(=O)(=O)N(C)CCN2CCCCCC2)cc1I 3.11
CN(CCN1CCCCCC1)S(=O)(=O)c1ccc(Br)cc1 0.18

P. CN(CCN1CCCCCC1)S(=O)(=O)c1ccc(I)cc1
Q. O=S(=O)(NCCN1CCCCCC1)c1ccc(I)cc1
R. COc1ccc(S(=O)(=O)NCCN2CCCCC2)cc1I
Ordering: ascending Ki. Would you mind listing the labels in the order requested?
P, Q, R
(P: 0.14 nM, Q: 1.32 nM, R: 41.8 nM)

a. O=S(=O)(NCCN1CCCCCC1)c1ccc(Br)cc1
b. O=S(=O)(NCCN1CCCCC1)c1ccc(Br)cc1
c. O=S(=O)(NCCN1CCCC1)c1ccc(Br)cc1
Ordering: ascending Ki. Would you mind listing the labels in the order requested?
a, b, c
(a: 0.63 nM, b: 1.54 nM, c: 6.65 nM)
